The reported measurements were obtained from paper PMC5540273.

- Test system: MEK5;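 also: KINOMEscan kinase panel screen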
- Construct: gene MAP2K5
- settings: concentration: 1 μM, replicates: in singlicate; n = 1
Records here are stratified by %Inh; strata: low: < 20%; moderate: ≥ 20% and < 40%; high: ≥ 40%

Using the reported %Inh, which band applies to CSc1ccc(-c2nc3n(c2-c2ccncc2)CCC3)cc1 [SKF-105561] ?
moderate

What about this molecule? Cc1ccccc1-c1cc(-c2c[nH]nc2-c2ccccn2)ccn1 [GW680061]
low

What about this molecule? CCn1c(-c2ccccc2)nc2cnccc21 [SB-733416]
moderate

What about this molecule? Cc1nccc(-c2c(-c3ccc(F)cc3)ncn2CCCN2CCOCC2)n1.Cl [SB-282975]
low

What about this molecule? CC(=O)c1cccc(NC(=O)NC2CCN(c3ccnc(Nc4ccc(F)cc4)n3)C2)c1 (centres unmarked) [GSK1379710]
moderate

What about this molecule? COc1ccc(Nc2nccc(N3CCC(NC(=O)C(C)c4ccc(Cl)cc4)C3)n2)cc1 (centres unmarked) [GSK1379735]
low

What about this molecule? O=c1cc(N2CCOCC2)nc2n(Cc3cccc(Cl)c3Cl)c3ccccc3n12 [GSK2299009]
high

What about this molecule? COC(=O)c1cccc(NC(=O)NC2CCN(c3ccnc(Nc4ccc(OC)cc4)n3)C2)c1 (centres unmarked) [GSK1379746]
moderate

What about this molecule? Cc1ccc(NC(=O)Nc2ccccc2F)cc1-c1ccc(C(=O)Nc2ccncc2)cc1 [GSK1398477]
moderate

What about this molecule? O=C(Nc1n[nH]c2cc(-c3ccsc3)ccc12)C1CC1 [SB-732932]
high

What about this molecule? COC(=O)C(Cc1ccccc1)NC(=O)NC1CCN(c2ccnc(Nc3ccc(F)cc3)n2)C1 (centres unmarked) [GSK1379714]
high
